B1: TPR t1 (parent)
chain: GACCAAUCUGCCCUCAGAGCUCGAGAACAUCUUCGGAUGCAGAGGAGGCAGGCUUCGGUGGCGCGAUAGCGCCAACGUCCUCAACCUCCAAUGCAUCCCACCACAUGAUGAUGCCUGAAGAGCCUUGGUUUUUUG

variants of: B1; assay: polymerase ribozyme fitness, log enrichment relative to wild type (log ratio); higher = more active; in vitro selection for triplet polymerase activity
polymerase ribozyme fitness (log ratio) vs -2: at or above is class 1, below is class 0.

>>> class_assignment("G61C U78C U133A")
"class 0"
>>> class_assignment("G47U C98U")
"class 0"
>>> class_assignment("G47A C53U A118U")
"class 1"
>>> class_assignment("C12G C62U")
"class 1"
>>> class_assignment("C13G G52U A75G")
"class 0"
>>> class_assignment("C40G G61C G69U")
"class 0"
>>> class_assignment("G47U A90U G117C")
"class 0"
>>> class_assignment("C12A U116A C124A")
"class 1"
>>> class_assignment("C72G U125G")
"class 1"
>>> class_assignment("C70U G120U")
"class 1"
>>> class_assignment("C13U C62G U130C G135U")
"class 1"
>>> class_assignment("C12U C70U C97A")
"class 0"
>>> class_assignment("G48C C72G C104A G120C G128A")
"class 0"
>>> class_assignment("G60C C86U U106G G120A")
"class 0"
>>> class_assignment("A37G C64A")
"class 0"
>>> class_assignment("G42A A50U")
"class 0"
>>> class_assignment("C53G G57U")
"class 1"
>>> class_assignment("C12U A91U G135U")
"class 0"
>>> class_assignment("C11A A37G U81G")
"class 0"
>>> class_assignment("A6C A37U G47U G52U G63C C124U")
"class 0"
>>> class_assignment("G44A U59A G63A C89G C115A C124A U129A")
"class 0"
>>> class_assignment("G63A A119G G127U")
"class 1"
>>> class_assignment("U32A G42A U54C U116C G128A")
"class 0"
>>> class_assignment("A6C C104A")
"class 1"
>>> class_assignment("G69U G93U U109C")
"class 0"
>>> class_assignment("G45C C49A C76U C102A")
"class 0"
>>> class_assignment("A43C C53U")
"class 0"
>>> class_assignment("U7C C28U C49U A50C G120A G122A")
"class 0"
>>> class_assignment("A6U C49A C62U")
"class 1"
>>> class_assignment("G69U G93A A118G G135U")
"class 1"
>>> class_assignment("U54G C62U U81A")
"class 1"
>>> class_assignment("G71U C102G U112A G127U")
"class 0"
>>> class_assignment("C40G G63U C80G C123U")
"class 0"
>>> class_assignment("U7G C97G")
"class 0"
>>> class_assignment("C86A C114U A119U")
"class 0"
>>> class_assignment("U9A A16C C49U A66G C101G C123A")
"class 0"
>>> class_assignment("U59C U109C C114A")
"class 0"
>>> class_assignment("U55A C62U C72U G120A")
"class 1"
>>> class_assignment("C49U G69U G117U")
"class 0"
>>> class_assignment("C62U G63C")
"class 0"
>>> class_assignment("C15G C115A")
"class 0"
>>> class_assignment("C64G U78C")
"class 0"
>>> class_assignment("G45A C53A C86A U133A")
"class 1"
>>> class_assignment("C40G U92G")
"class 0"
>>> class_assignment("A26U C62U U129A")
"class 0"
>>> class_assignment("G48A G127C")
"class 0"
